# exchange rate vs Pos peptide per record follows
molecular target: T1, HLA-A*01:01 (human, biotinylated heavy chain); experiment: UV peptide exchange + HLA class I ELISA
T1 construct: Conditional HLA class I complex first loaded with a UV-labile peptide, which is cleaved by UV and exchanged for the test peptide; captured on streptavidin by its biotinylated heavy chain; also called conditional HLA class I complex
Write the number in % without appending the unit.

Solved cases (2 shown):
| BINDER | exchange rate vs Pos peptide, % |
| --- | --- |
| IQYSCMGLM [P50 9-mer peptide (AR (W742C))] | 2.3 |
| STRRAVRRM (Synthetic 9-mer fragment) [P16 9-mer peptide (MSMB-NCOA4 fusion)] | 5.5 |

// next entry
Q: Which exchange rate vs Pos peptide value belongs to FFKRAAEGF [P77 9-mer peptide (AR-V3 splice variant)] ?
Ans: 1.9
